tested on: UO-31; assay: NCI tumour cell line growth inhibition, 48 h
Activity calls are given as the source filed them. Cut-off read from the data, not from the text of the source: active = GI50 up to about 1.1 µM and inactive = higher.
testReadout: GI50

- N#Cc1nc(-c2ccccn2)c(-c2ccccn2)nc1C#N: 1.3 µM (inactive)
- O=C(Nc1ccc(Cl)cc1)c1cc(S(=O)(=O)N2CCNNC2=O)c(S)cc1Cl: > 100 µM (inactive)
- COc1ccc(/C=c2/sc3n(c2=O)NC2(CCC(C)CC2)NN=3)cc1 (stereo not drawn): > 100 µM (inactive)
- CC(=O)NC1C(=O)CC(c2ccccc2)N(C)C1c1ccccc1 (stereo not drawn): 94.8 µM (inactive)
- [O-][n+]1c2c([n+]([O-])c3ccccc31)-c1cccc3cccc-2c13: 43 µM (inactive)

### Prompt What value of GI50 has been recorded for this entry: CC12CCC3(C1)[C@H](CC2=O)C[C@@H](OC(=O)c1ccccc1)C1C(C)(CO)CCC[C@@]13C (stereo partly drawn)
### Response 4.15 µM (inactive)

### Prompt What value of GI50 has been recorded for this entry: CC1OC(OC2C(O)COC(OC3C(C)OC(OC4C(OC(=O)[C@]56CCC(C)(C)C[C@@H]5C5=CCC7[C@@]8(C)C[C@H](O)[C@H](OC9OC(CO)C(O)C(OC%10OC(CO)C(O)C(O)C%10O)C9O)[C@@](C)(CO)[C@@H]8CC[C@@]7(C)[C@]5(C)CC6)OCC(O)C4O)C(O)C3OC3OCC(O)C(O)C3O)C2O)C(O)C(O)C1O (stereo partly drawn)
### Response 3.15 µM (inactive)

### Prompt What value of GI50 has been recorded for this entry: `c1cc(N(CCn2cccn2)CCn2cccn2)cc(N(CCn2cccn2)CCn2cccn2)c1`
### Response > 100 µM (inactive)

###

system: K562; experiment: NCI tumour cell line growth inhibition, 48 h
The source made the active and inactive calls. Rule as the data show it: active = GI50 up to about 1.1 µM and inactive = higher.
testReadout: GI50

* N#CCCN(CCC#N)c1ccc(C(=O)NN)cc1 | > 100 µM (inactive)
* COc1ccc(/C=c2/sc3n(c2=O)NC2(CCC(C)CC2)NN=3)cc1 (stereo not given) | > 100 µM (inactive)
* O=C(n1[nH]c(=O)n(-c2ccc([N+](=O)[O-])cc2)c1=O)C(Cl)(Cl)Cl | > 75 µM (inactive)
* O=C(O)c1nc2ccccc2nc1NCc1ccc(F)cc1 | 56.1 µM (inactive)

Could you now look at the following compound, please?
### Prompt What value of GI50 has been recorded for this entry: CCCCCCCCCCCCCCCCOCC(COP(=O)([O-])OCC[n+]1ccc(N(C)C)cc1)OCC (stereo not given)
### Response 19.3 µM (inactive)

###

# GI50 listing for each entry below
test system: HT-29; test: NCI tumour cell line growth inhibition, 48 h
Active and inactive are the calls of the source. No stated cut-off is given here; in the data, active = GI50 up to about 1.1 µM and inactive = higher.

Known GI50 results, listed for orientation:
• C/C(=N\Nc1nc2ccccc2[nH]1)c1cnccn1 = 0.394 µM (active)
• CCCCn1/c(=N/C(=S)N(C)C)ss/c1=N\C(=S)N(C)C = > 100 µM (inactive)

### Prompt What value of GI50 has been recorded for this entry: `O=c1[nH]c2nccn2c2c1SCCN2`
### Response > 100 µM (inactive)

### Prompt What value of GI50 has been recorded for this entry: `C=C(C)[C@@H]1CCC2=C[C@H](OC2=O)[C@@]2(C)C[C@@H]2C(=O)/C=C(/C)C(=O)[C@H]1OC(C)=O`
### Response 11.1 µM (inactive)

###

# GI50 listing for each entry below
system: HOP-62; test: NCI tumour cell line growth inhibition, 48 h
The source made the active and inactive calls. Rule as the data show it: active = GI50 up to about 1.1 µM and inactive = higher.

Known GI50 results, listed for orientation:
* CC(=O)O[C@]12CCCCC1C1(O)C(O)CCCCC12 (stereo not given in full) | > 100 µM (inactive)
* c1ccc(/C(=N/Nc2nc3ccccc3s2)C2CCCCC2)nc1 | 9.46 µM (inactive)
* CSc1ccc(/C=C/C(=O)c2nc3ccccc3[nH]2)cc1 | 24.3 µM (inactive)
* O=C(CCC1CCCCC1)NCc1ccc(C(=O)O)cc1 | > 100 µM (inactive)

Could you now look at the following molecule, please?
### Prompt What value of GI50 has been recorded for this entry: `COc1cc2c3cc1Oc1c(OC)c(OC)cc4c1[C@@H](Cc1ccc(O)c(c1)Oc1ccc(cc1)C[C@@H]3N(C)CC2)N(C)CC4.c1ccccc1`
### Response 18.1 µM (inactive)

###

test system: SK-MEL-2; assay: NCI tumour cell line growth inhibition, 48 h
Activity calls are given as the source filed them. No stated cut-off is given here; in the data, active = GI50 up to about 1.1 µM and inactive = higher.
testReadout: GI50

Known GI50 results, listed for orientation:
* O=C(OCN1C(=O)C2C3C=CC(C2C1=O)C1C2C(=O)N(COC(=O)C4CCCN4)C(=O)C2C31)C1CCCN1 (stereo unspecified) | > 31.6 µM (inactive)
* Cc1cc(C)cc(NC(=O)CCC(=O)C2CCC/C2=N\NC(=O)C(=O)NN)c1 (stereo unspecified) | > 100 µM (inactive)

### Prompt What value of GI50 has been recorded for this entry: `O=C1c2ccccc2-c2[nH]c3cn[nH]c(=O)c3c21`
### Response 47.2 µM (inactive)

### Prompt What value of GI50 has been recorded for this entry: Cc1cccc(C(C)C)c1NC(=O)CC1Sc2ccccc2NC1=O (stereo unspecified)
### Response 42.5 µM (inactive)

### Prompt What value of GI50 has been recorded for this entry: `O=C(c1ccccc1)n1c2ccc(Br)cc2c2nc3ccccc3nc21`
### Response 95.3 µM (inactive)

### Prompt What value of GI50 has been recorded for this entry: `CN(C)CCCNc1cc(O)c2c(c1O)C(=O)c1ccccc1C2=O`
### Response 19.8 µM (inactive)

### Prompt What value of GI50 has been recorded for this entry: `COC(=O)c1c(O)ccc2c1c1c(n2Cc2ccccn2)C(=O)c2ccccc2C1`
### Response 75 µM (inactive)

###

test system: MOLT-4; assay: NCI tumour cell line growth inhibition, 48 h
Active and inactive are the calls of the source. Rule as the data show it: active = GI50 up to about 1.1 µM and inactive = higher.
testReadout: GI50

- O=C(O)C12C3CCC(CC3)C1(C(=O)O)C1CCC2C1 (centres undefined): > 100 µM (inactive)
- Cc1cccc2c(N)c3cccc(C(=O)NCC[N+](C)(C)Cc4ccc(S(C)(=O)=O)cc4)c3nc12: 2.02 µM (inactive)
- O=C(O)c1ccccc1/C=C1\Cc2ccccc2C1=O: > 100 µM (inactive)

Could you now look at the following compound, please?
### Prompt Request: GI50, test system MOLT-4, entry CC1(C)CC(O)C(C)(C)[C@@H](O)C1 (some centres undefined)
### Response > 100 µM (inactive)

###

tested on: DU-145; assay: NCI tumour cell line growth inhibition, 48 h
Active and inactive are the calls of the source. Cut-off read from the data, not from the text of the source: active = GI50 up to about 1.1 µM and inactive = higher.
# GI50 listing for each entry below

Known GI50 results, listed for orientation:
* CN1C(=O)C(CC(=O)O)NC1=S (stereo not given) | > 100 µM (inactive)
* C=CC(C)CCC(C/C=C(\C)CCC=C(C)C)C(=C)CCCC(C)C (stereo not given) | > 100 µM (inactive)
* CN(C)C(=S)N1C(=S)N(c2ccccc2)C(=N/c2ccccc2)/C1=N\c1ccccc1 | > 100 µM (inactive)
* COc1cccc2c1C(=O)c1c(O)c3c(c(O)c1C2=O)CC(O)(C(C)=O)CC3OC1OC(COC(C)=O)C(OC(C)=O)C(OC(C)=O)C1OC(C)=O (stereo not given) | 26.9 µM (inactive)

Could you now look at the following compound, please?
### Prompt What value of GI50 has been recorded for this entry: CCCCCCCCCCCCCCCCCC(=O)Nc1ccn(C2OC(CO)C(O)C2O)c(=O)n1 (stereo not given)
### Response 10.7 µM (inactive)

###

tested on: RXF 393; experiment: NCI tumour cell line growth inhibition, 48 h
Activity calls are given as the source filed them. Rule as the data show it: active = GI50 up to about 1.1 µM and inactive = higher.
# GI50 listing for each entry below

• CN1C/C(=C\c2cccs2)C(O)/C(=C/c2cccs2)C1 (configuration not stated) = > 100 µM (inactive)
• C/C(=N\Nc1nc2ccccc2[nH]1)c1cnccn1 = 0.392 µM (active)
• CN(C)Cc1cc(C(=O)/C=C/c2ccc(O)cc2)cc(CN(C)C)c1O = 59.8 µM (inactive)
• C[N+](C)(C)CC1Cc2ccccc2C1=O (configuration not stated) = > 9.31 µM (inactive)
• CC1C(C#N)(C#N)C(C#N)=C(N)C1(C)[N+](=O)[O-] (configuration not stated) = 43.1 µM (inactive)
• COc1ccc(/C=C2\CCC(CNc3ccc(OC)cc3)C2=O)cc1 (configuration not stated) = 16.2 µM (inactive)
• CC1(C)C=N[N+]2(C)C3C=CC(CC3)C12 (configuration not stated) = > 100 µM (inactive)
• CC(=O)O[C@]12CCCCC1C1(O)C(O)CCCCC12 (some centres not stated) = > 100 µM (inactive)

### Prompt What value of GI50 has been recorded for this entry: `COC(=O)n1c(=O)n(-c2ccccc2)c(=O)n1C(=O)Nc1ccccc1`
### Response > 100 µM (inactive)

### Prompt What value of GI50 has been recorded for this entry: CON(C)C(=O)C(C)NC(=O)OC(C)(C)C (configuration not stated)
### Response > 100 µM (inactive)

### Prompt What value of GI50 has been recorded for this entry: CC1(c2ccccc2Cl)C(C#N)C(=O)NC(=O)C1C#N (configuration not stated)
### Response 27.9 µM (inactive)

### Prompt What value of GI50 has been recorded for this entry: CCCCCCCCCCCC(=O)OC(COC(N)=O)COc1ccc(Cl)cc1 (configuration not stated)
### Response 21 µM (inactive)
